Data origin: the RepoRT retention time repository (doi:10.1016/j.foodchem.2021.129757)

# assay remarks: RP, 150 × 2.1 mm, 2.6 µm, 40 °C, 0.35 mL/min, estimated dead time 0.94 min; A: water + 0.1% formic acid, pH 3; B: acetonitrile + 0.1% formic acid, pH 3; gradient (min/%B) 0/0 1/0 12.5/100 14/100 14.2/0 15/0
# recorded conditions: stereoisomer not certain
quantity kind: LC retention time (min)

compound: O=c1cc(-c2ccc(O)cc2)oc2cc(OC3OC(CO)C(O)C(O)C3O)cc(O)c12 (configuration not stated) [Apigenin 7-O-glucoside]
quantity kind: LC retention time
value: 6.07
--
compound: O=C1c2c(O)cc(O)cc2OC(c2ccc(O)c(O)c2)C1O (configuration not stated) [Taxifolin]
quantity kind: LC retention time
value: 5.84

[a] COc1ccc2[nH]cc(CC(=O)O)c2c1 [5-Methoxyindoleacetic acid]
[b] Oc1cccc(O)c1O [Pyrogallol]
Form field 'greater LC retention time' accepts a or b ; which applies? Let me know the label of the one you choose. a

###

# assay remarks: RP, Merck LiChrospher RP-18, 250 × 4 mm, 5 µm, 35 °C, 0.3 mL/min, estimated dead time 6.7 min; A: water + 0.5% formic acid; B: acetonitrile + 0.5% formic acid; gradient (min/%B) 0/5 10/5 30/15 45/20 65/20 95/54 110/63 115/5 135/5
# recorded conditions: stereoisomer not certain
quantity kind: LC retention time (min)

Worked cases, LC retention time given:
molecule: O=C1CC(c2ccc(O)cc2)Oc2cc(O)cc(O)c21 (stereo not given)
measurement units: min
LC retention time: 95.6
//
molecule: O=C(C=Cc1ccc(O)c(O)c1)OC(Cc1ccc(O)c(O)c1)C(=O)O (stereo not given)
measurement units: min
LC retention time: 79.8
//
molecule: CCOC(=O)C=Cc1ccc(O)c(O)c1 [Ethyl Caffeate]
measurement units: min
LC retention time: 92.7

[A] O=c1c(O)c(-c2ccc(O)c(O)c2)oc2cc(O)cc(O)c12
[B] CC1OC(OCC2OC(Oc3c(-c4ccc(O)c(O)c4)oc4cc(O)cc(O)c4c3=O)C(O)C(O)C2O)C(O)C(O)C1O (stereo not given)
Could you tell me which of these two has the smaller LC retention time figure? First: A Second: B Let me know the label of the one you choose. B
(B: 59.2 min, A: 91 min)

###

# assay remarks: RP, Agilent ZORBAX RRHD Eclipse Plus C18, 50 × 2.1 mm, 1.8 µm, 30 °C, 0.4 mL/min, estimated dead time 0.28 min; A: water + 0.1% formic acid, pH 3; B: acetonitrile + 0.1% formic acid, pH 3; gradient (min/%B) 0/1 5/10 8/25 9.1/99 10/99 12/1
# recorded conditions: stereoisomer not certain
quantity kind: LC retention time (min)

compound: Oc1cc(O)c2c(c1)OC1(c3ccc(O)c(O)c3)Oc3cc(O)c4c(c3C2C1O)OC(c1ccc(O)c(O)c1)C(O)C4 (centres undefined)
quantity kind: LC retention time
value: 8.05
//
compound: O=C(O)CCc1ccc(O)cc1
quantity kind: LC retention time
value: 6.75

[I] COc1cc(C=CC(=O)O)cc(OC)c1O
[II] O=C(O)CNC(=O)c1ccc(O)cc1 [4-Hydroxyhippuric acid]
Form field 'greater LC retention time' accepts I or II ; which applies? Let me know the label of the one you choose. I

###

# assay remarks: RP, Agilent ZORBAX RRHD Eclipse Plus C18, 50 × 2.1 mm, 1.8 µm, 30 °C, 0.4 mL/min, estimated dead time 0.28 min; A: water + 0.1% formic acid, pH 3; B: acetonitrile + 0.1% formic acid, pH 3; gradient (min/%B) 0/1 5/10 8/25 9.1/99 10/99 12/99
# recorded conditions: stereoisomer not certain
quantity kind: LC retention time (min)

compound: O=C1CCC(Cc2ccc(OS(=O)(=O)O)c(O)c2)O1 (stereo not drawn)
LC retention time (min): 5.42

compound: COc1cc(-c2oc3cc(O)cc(O)c3c(=O)c2O)ccc1O
LC retention time (min): 9.29

compound: O=C(O)CNC(=O)c1ccccc1
LC retention time (min): 3.49

compound: O=C(O)Cc1ccccc1
LC retention time (min): 4.65

[A] O=c1c(O)c(-c2ccc(O)c(O)c2)oc2cc(O)cc(O)c12
[B] O=C(O)CCc1ccc(O)c(OC2OC(C(=O)O)C(O)C(O)C2O)c1 (stereo not drawn) [Dihydrocaffeic acid-3-O-glucuronide]
[C] COc1cc(C(=O)O)ccc1OS(=O)(=O)O [Vanillic acid-4-O-sulfate]
[D] COc1c(O)cccc1OS(=O)(=O)O [2-Methyl-pyrogallol-O-sulfate]
List from greatest to least LC retention time. In your reply, arrange the labels in the requested order. A, B, C, D
(A: 9.19 min, B: 3.94 min, C: 2 min, D: 1.12 min)
